The measurements presented in this section are drawn from patent US6648952B1.

- test: Solubility of the dye in pure water
- Format: physicochemical
- recorded conditions: pure water (ion exchanged water), 25° C.
readout label: solubility

The compound identified as CC(C)(C)CC(C)(C)c1ccc(Oc2cc(Nc3ccc(S(=O)(=O)O)cc3)c3c4c(c(C(=O)c5ccccc5)c(=O)[nH]c24)-c2ccccc2C3=O)c(S(=O)(=O)O)c1 registered its solubility at 100 mg/mL
